System: mice
Assay: Open field (dark), spontaneous motor activity
Type: in vivo
Conditions: oral, 60 min before test, for examples marked * 20 mg/kg is the only dose tested
PARAMETER MEASURED: OF: maximum non-sedating dose (mg/kg)
Your answer is read as mg/kg, so omit the unit and give the number.

Reference set (6 entries):
smiles_input=CCn1cc(C(=O)Nc2ccc(-c3ccccc3)cc2)c(=O)c2cc(NC3Cc4ccccc4C3)cnc21 target_system=mice parameter_measured="OF: maximum non-sedating dose" readout_number=20
smiles_input=CCOC(=O)c1cn(CC)c2ncc(NC(=O)c3cc(OC)c(OC)c(OC)c3)cc2c1=O target_system=mice parameter_measured="OF: maximum non-sedating dose" readout_number=20
smiles_input=CCN(CC)C(=O)c1cn(CC)c2ncc(NC3Cc4ccccc4C3)cc2c1=O target_system=mice parameter_measured="OF: maximum non-sedating dose" readout_number=20
smiles_input=CCn1cc(C(=O)N2CCOCC2)c(=O)c2nc(NC3Cc4ccccc4C3)ccc21 target_system=mice parameter_measured="OF: maximum non-sedating dose" readout_number=5
smiles_input=CCOC(=O)c1cn(CC)c2ncc(NC(=O)C(C)C)cc2c1=O target_system=mice parameter_measured="OF: maximum non-sedating dose" readout_number=20
smiles_input=CCn1cc(C(=O)N2CCOCC2)c(=O)c2cc(NC3Cc4ccccc4C3)cnc21 target_system=mice parameter_measured="OF: maximum non-sedating dose" readout_number=100

Consider the additional molecule presented here.
What does the record list as OF: maximum non-sedating dose for "CCn1cc(C(=O)Nc2ccc(F)cc2)c(=O)c2cc(NC3Cc4ccccc4C3)cnc21" ?
20

====

Tested on: mice
Assay: Light dark test
Assay type: in vivo
Details: oral, 60 min before test, parameters: time spent in lit area, transitions into lit area, total walked distance in lit area
PARAMETER MEASURED: LD: significant anxiolytic effect (number of significant parameters)

Reference set (4 entries):
smiles_input=CCn1cc(C(=O)N2CCN(C)CC2)c(=O)c2cc(NC3Cc4ccccc4C3)cnc21 target_system=mice result=++
smiles_input=CCn1cc(C(=O)N2CCOCC2)c(=O)c2nc(NC3Cc4ccccc4C3)ccc21 target_system=mice result=+++
smiles_input=CCn1cc(C(=O)NC2CC2)c(=O)c2cc(NC3Cc4ccccc4C3)cnc21 target_system=mice result=+
smiles_input=CCn1cc(C(=O)N2CCOCC2)c(=O)c2cc(NC3Cc4ccccc4C3)cnc21 target_system=mice result=++

What does the record list as LD: significant anxiolytic effect (number of significant parameters) for "CCn1cc(C(=O)N2CCOCC2)c(=O)c2cc(NC3Cc4ccccc4C3)ncc21" ?
++

What do you get for "CCOC(=O)c1cn(CC)c2ncc(NC(=O)C(C)C)cc2c1=O" ?
+++

What do you get for "CCn1cc(C(=O)Nc2ccc(F)cc2)c(=O)c2cc(NC3Cc4ccccc4C3)cnc21" ?
++

What do you get for "CCn1cc(C(=O)Nc2ccc(-c3ccccc3)cc2)c(=O)c2cc(NC3Cc4ccccc4C3)cnc21" ?
+++

What do you get for "CCN(CC)C(=O)c1cn(CC)c2ncc(NC3Cc4ccccc4C3)cc2c1=O" ?
++

What do you get for "CCOC(=O)c1cn(CC)c2ncc(NC(=O)c3cc(OC)c(OC)c(OC)c3)cc2c1=O" ?
++

====

System: mice
Experiment: Open field (dark), spontaneous motor activity
Type: in vivo
Parameters: key: sedation: NS: no sedation; S: sedation
Details: oral, 60 min before test, 20 min recording
PARAMETER MEASURED: OF: sedation

smiles_input=CCn1cc(C(=O)N2CCOCC2)c(=O)c2nc(NC3Cc4ccccc4C3)ccc21 parameter_measured="OF: sedation" result=S
smiles_input=CCOC(=O)c1cn(CC)c2ncc(NC(=O)c3cc(OC)c(OC)c(OC)c3)cc2c1=O parameter_measured="OF: sedation" result=S
smiles_input=CCn1cc(C(=O)N2CCOCC2)c(=O)c2cc(NC3Cc4ccccc4C3)cnc21 parameter_measured="OF: sedation" result=NS
